The measurements presented in this section are drawn from ChEMBL document CHEMBL1201862.

Measured AC50 on Cytochrome P450 1A2 (Homo sapiens) follows.
Sequence (P05177 whole entry): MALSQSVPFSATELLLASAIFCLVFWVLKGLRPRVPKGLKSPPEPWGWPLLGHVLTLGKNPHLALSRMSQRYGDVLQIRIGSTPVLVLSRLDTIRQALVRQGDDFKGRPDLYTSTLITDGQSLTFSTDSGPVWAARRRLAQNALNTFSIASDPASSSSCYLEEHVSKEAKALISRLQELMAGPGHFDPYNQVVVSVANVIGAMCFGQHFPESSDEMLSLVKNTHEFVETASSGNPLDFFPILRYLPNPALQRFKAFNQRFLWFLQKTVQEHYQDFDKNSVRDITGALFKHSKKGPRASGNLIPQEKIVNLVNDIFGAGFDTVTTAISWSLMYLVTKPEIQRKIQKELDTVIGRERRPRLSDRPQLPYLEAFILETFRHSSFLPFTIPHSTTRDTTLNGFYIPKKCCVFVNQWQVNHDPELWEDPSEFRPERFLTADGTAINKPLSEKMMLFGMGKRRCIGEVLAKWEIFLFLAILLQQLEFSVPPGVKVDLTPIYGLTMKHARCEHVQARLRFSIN

Answered cases to consult:
CCOC(=O)CC(NC(=O)c1ccco1)c1ccc(OC)cc1 (stereo not given)	25.1 µM (inconclusive)
COc1ccc(CNC(=O)c2cnc(C)cn2)cc1	12.6 µM (inconclusive)
O=C(N/N=C/c1c[nH]c2ccccc12)c1cc(-c2ccc(-c3ccccc3)cc2)[nH]n1	3.16 µM (inconclusive)
CCOc1ccc(NC(=S)NC(=O)/C=C/c2ccc(OC)c(OC)c2)c([N+](=O)[O-])c1	15.8 µM (inconclusive)

Req: Give the value of AC50 reported for the following: COc1cccc(Cn2c(=O)c(CCc3ccccc3)nc3cnc(OC)nc32)c1
Resp: 12.6 µM (inconclusive)

* * *

target: UniProt P10635
Sequence (P10635 whole entry): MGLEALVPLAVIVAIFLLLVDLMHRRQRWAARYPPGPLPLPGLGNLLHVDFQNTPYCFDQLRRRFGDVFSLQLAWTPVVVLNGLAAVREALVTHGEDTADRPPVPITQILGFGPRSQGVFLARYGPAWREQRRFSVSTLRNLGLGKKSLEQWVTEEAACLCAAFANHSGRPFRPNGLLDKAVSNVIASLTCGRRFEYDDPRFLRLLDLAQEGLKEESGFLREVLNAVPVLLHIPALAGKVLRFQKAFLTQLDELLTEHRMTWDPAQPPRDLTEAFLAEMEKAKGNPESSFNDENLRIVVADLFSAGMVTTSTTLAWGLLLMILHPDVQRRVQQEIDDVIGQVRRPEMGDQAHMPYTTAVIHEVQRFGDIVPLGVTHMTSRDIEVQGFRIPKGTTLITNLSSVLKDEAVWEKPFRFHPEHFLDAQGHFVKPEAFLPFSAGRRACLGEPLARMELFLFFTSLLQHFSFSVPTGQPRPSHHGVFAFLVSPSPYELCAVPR
Record form. Attribute: AC50. Fill in for each entry.

Answered cases to consult:
CN(C)C(=O)c1ccc(-c2nc(Nc3ccc(F)cc3)c3ccccc3n2)cc1	25.1 µM (inconclusive)
O=c1c(-c2cccs2)nc2cncnc2n1Cc1ccc(F)cc1	0.631 µM (inconclusive)
COc1cc2c(cc1OC)-c1cc3ccc(OC)c(OC)c3c[n+]1CC2	12.6 µM (inconclusive)
CCOC(=O)CSC1=C(C#N)C(c2sccc2C)C(C(C)=O)=C(C)N1 (stereo unspecified)	35.5 µM (inconclusive)

Fill in AC50 for each of the 4 molecules listed.
1. COCCNc1ncnc2ccc(-c3ccccc3OC)cc12
2. CCn1c(COc2ccc(OC)cc2)nc2ccccc21
3. O=C(Cn1cc(C(=O)c2ccco2)c2ccccc21)NCc1ccco1
4. C[N+](C)(C)C1=NNC2=Nc3ccccc3SC2=C1

Resp:
1. 39.8 µM (inconclusive)
2. 17.8 µM (inconclusive)
3. 22.4 µM (inconclusive)
4. 3.98 µM (inconclusive)

Fill in AC50 for each of the 2 molecules listed.
1. Cc1c(NC(C)C)c(=O)n(-c2ccccc2)n1C
2. O=C(c1ccc([N+](=O)[O-])cc1)[C@@H](Br)[C@@H](Br)c1ccnc2ccccc12

Resp:
12.6 µM (inconclusive)
3.98 µM (inconclusive)

Req: Give the value of AC50 reported for the following: COC(=O)[C@@]1(Cc2ccc(F)cc2)[C@H]2c3cc(C(=O)N(C)C)n(Cc4ccc(C)c(F)c4F)c3C[C@H]2CN1C(=O)c1ccccc1
Resp: 20 µM (inconclusive)

* * *

tested on: Streptococcus sp. 'group A'; assay: Streptococcus pyogenes SK(-)GAS viability under kanamycin – luminescence, BacTiterGlo, confirmation, counter-screen for streptokinase expression inhibitor project, dose response (AID 1900); assay type: functional, organism-based
Activity calls are given as the source filed them.
Record form. Attribute: EC50. Fill in for each entry.

CCC(C(=O)NCCCN1CCCC1=O)n1c2ccccc2c2nc(=O)cc(C)n21 (configuration not stated)	> 150 µM (not active)
O=C(COc1ccccc1)NNC(=S)NC(=O)c1ccc(Cl)cc1Cl	0.623 µM (active)
O=C(NC(=S)NNC(=O)c1ccc(Cl)cc1Cl)c1cccnc1	5.27 µM (active)
Cc1nn(-c2ccccc2)c2sc(-c3nnc(S)o3)cc12	4.28 µM (active)
CCN(CCn1cccn1)C(=O)CC1C(=O)NCCN1CCc1ccccc1 (configuration not stated)	> 150 µM (not active)

Fill in EC50 for each of the 2 molecules listed.
1. CCOC(=O)c1c(CN(C)C)n(-c2ccc(C)cc2)c2cc(Br)c(O)cc12
2. Oc1c(CN2CCCCC2)cc(Br)c2cccnc12

Resp:
8.71 µM (active)
3.42 µM (active)

* * *

molecular target: Glyceraldehyde-3-phosphate dehydrogenase (Homo sapiens, UniProt P04406)
Sequence (P04406 whole entry): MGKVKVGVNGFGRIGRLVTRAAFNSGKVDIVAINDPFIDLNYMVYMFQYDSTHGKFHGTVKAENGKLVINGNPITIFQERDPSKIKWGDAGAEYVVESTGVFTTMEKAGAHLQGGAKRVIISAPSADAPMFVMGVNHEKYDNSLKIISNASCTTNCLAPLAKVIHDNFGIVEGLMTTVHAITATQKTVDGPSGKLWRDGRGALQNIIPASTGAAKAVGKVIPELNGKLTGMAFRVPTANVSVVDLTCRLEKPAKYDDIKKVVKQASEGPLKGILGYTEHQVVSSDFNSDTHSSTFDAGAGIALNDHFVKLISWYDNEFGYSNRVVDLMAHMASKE
Record form. Attribute: IC50. Fill in for each entry.

Fill in IC50 for each of the 5 compounds listed.
1. Cc1c(C(=O)O)nnn1-c1ccc(Cl)cc1
2. COc1cccc(-c2cc(C(F)(F)F)nc(S(C)(=O)=O)n2)c1
3. Cc1cccc(N2C(=O)C(Cl)=C(N(C)C)C2=O)c1
4. COc1cccc(N2C(=O)C(Cl)=C(N3CCN[C@@H](C)C3)C2=O)c1
5. COc1cccc(S(=O)(=O)Nc2ccncn2)c1

Resp:
1. > 100 µM (not active)
2. > 100 µM (not active)
3. > 50 µM (inconclusive)
4. > 50 µM (inconclusive)
5. > 100 µM (not active)

* * *

molecular target: Fatty acid synthase (Homo sapiens); assay: inhibition of human FAS-TE enzyme activity – biochemical, endpoint fluorescence intensity, uHTS hits, dose response (AID 624327); type: functional;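 further: fluorescence from hydrolysis of an O-methyl fluorescein acyl ester substrate by the enzyme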
Sequence (P49327 whole entry): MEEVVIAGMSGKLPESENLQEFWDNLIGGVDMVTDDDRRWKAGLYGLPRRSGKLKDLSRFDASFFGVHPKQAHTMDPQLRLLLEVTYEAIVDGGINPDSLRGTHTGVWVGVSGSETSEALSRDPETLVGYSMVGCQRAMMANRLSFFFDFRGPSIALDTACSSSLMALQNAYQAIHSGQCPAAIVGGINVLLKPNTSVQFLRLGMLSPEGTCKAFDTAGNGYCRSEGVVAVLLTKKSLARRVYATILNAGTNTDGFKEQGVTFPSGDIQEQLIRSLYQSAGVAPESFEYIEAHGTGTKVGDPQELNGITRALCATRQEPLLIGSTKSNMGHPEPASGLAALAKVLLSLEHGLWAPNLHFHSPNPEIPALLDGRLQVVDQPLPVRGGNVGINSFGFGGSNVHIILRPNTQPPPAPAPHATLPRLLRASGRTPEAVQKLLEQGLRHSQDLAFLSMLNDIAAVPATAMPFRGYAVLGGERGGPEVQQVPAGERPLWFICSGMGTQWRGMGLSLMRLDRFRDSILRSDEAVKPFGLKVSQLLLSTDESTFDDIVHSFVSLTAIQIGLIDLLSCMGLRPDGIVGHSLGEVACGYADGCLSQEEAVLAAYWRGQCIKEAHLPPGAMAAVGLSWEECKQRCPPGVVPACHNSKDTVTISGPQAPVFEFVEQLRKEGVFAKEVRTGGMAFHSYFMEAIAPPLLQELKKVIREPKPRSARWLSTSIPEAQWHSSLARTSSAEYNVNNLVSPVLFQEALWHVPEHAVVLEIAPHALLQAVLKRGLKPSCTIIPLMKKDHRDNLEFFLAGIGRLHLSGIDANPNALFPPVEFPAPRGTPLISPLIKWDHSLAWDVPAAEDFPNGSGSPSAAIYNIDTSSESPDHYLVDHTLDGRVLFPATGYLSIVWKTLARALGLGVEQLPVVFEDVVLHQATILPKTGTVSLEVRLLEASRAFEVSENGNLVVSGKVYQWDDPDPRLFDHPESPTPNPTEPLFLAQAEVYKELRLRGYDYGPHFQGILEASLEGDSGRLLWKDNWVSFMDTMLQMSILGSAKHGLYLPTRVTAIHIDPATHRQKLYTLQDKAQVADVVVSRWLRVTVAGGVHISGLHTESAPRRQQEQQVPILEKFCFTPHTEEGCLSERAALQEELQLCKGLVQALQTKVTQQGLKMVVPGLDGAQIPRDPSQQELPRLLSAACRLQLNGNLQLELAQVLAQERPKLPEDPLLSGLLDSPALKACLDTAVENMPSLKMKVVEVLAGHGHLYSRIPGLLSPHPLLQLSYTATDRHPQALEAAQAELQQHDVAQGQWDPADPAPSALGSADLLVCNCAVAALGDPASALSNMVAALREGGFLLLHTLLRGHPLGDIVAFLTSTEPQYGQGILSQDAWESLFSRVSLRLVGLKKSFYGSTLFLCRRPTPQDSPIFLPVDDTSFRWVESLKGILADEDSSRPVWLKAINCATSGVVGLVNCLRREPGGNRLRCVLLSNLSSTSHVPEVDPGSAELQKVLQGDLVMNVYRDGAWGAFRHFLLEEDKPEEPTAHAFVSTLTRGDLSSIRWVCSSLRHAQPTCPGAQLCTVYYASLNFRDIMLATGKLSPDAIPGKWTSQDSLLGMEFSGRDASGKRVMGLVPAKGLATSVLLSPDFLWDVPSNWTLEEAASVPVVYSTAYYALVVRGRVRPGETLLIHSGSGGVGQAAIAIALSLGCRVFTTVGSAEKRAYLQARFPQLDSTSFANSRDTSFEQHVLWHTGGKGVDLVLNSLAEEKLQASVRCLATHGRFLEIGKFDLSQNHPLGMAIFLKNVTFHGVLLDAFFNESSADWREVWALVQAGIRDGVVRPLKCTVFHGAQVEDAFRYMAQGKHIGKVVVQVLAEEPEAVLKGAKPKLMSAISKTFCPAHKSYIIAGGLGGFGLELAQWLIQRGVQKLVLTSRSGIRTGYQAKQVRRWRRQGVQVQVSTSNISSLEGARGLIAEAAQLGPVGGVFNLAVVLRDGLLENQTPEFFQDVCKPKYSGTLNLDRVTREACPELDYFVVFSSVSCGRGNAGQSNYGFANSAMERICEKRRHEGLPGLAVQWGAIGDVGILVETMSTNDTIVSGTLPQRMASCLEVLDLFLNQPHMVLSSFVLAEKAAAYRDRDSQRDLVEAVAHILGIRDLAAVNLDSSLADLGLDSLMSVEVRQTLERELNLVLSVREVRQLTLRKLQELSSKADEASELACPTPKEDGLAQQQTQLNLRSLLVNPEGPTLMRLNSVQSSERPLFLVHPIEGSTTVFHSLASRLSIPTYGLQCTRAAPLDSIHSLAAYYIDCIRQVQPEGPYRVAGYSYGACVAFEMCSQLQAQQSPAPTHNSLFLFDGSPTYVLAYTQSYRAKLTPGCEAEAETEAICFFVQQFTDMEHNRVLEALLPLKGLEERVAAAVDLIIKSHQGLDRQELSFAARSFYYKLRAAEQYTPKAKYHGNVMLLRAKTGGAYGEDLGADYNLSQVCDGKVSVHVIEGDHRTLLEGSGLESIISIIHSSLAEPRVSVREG
The source made the active and inactive calls.
Record form. Attribute: IC50. Fill in for each entry.

Answered cases to consult:
COC(=O)c1cc(C(=O)OCC(=O)NC2CCCC2)cc([N+](=O)[O-])c1	8.82 µM (active)
CC(C)(CNC(=O)c1ccc([N+](=O)[O-])c(Cl)c1)CNC(=O)c1ccc([N+](=O)[O-])c(Cl)c1	5.44 µM (active)
Cc1cc(Cl)ccc1NC(=O)COC(=O)c1cc([N+](=O)[O-])ccc1N1CCOCC1	2.55 µM (active)
CC1(C(=O)NS(=O)(=O)c2ccc(C#N)cc2)CCN1C(=O)Cc1ccc(Cl)cc1Cl (stereo unspecified)	10.1 µM (active)
O=C1CC(c2cccc([N+](=O)[O-])c2)c2cc3c(cc2N1)CCC3 (stereo unspecified)	10.9 µM (active)

// next entry
Req: Give the value of IC50 reported for the following: O=C(Nc1cccc([N+](=O)[O-])c1)N1CCc2ccccc2C1
Resp: 8.71 µM (active)

* * *

Record form. Attribute: IC50. Fill in for each entry.
Target: UniProtKB Q9GZR1
Sequence (Q9GZR1 whole entry): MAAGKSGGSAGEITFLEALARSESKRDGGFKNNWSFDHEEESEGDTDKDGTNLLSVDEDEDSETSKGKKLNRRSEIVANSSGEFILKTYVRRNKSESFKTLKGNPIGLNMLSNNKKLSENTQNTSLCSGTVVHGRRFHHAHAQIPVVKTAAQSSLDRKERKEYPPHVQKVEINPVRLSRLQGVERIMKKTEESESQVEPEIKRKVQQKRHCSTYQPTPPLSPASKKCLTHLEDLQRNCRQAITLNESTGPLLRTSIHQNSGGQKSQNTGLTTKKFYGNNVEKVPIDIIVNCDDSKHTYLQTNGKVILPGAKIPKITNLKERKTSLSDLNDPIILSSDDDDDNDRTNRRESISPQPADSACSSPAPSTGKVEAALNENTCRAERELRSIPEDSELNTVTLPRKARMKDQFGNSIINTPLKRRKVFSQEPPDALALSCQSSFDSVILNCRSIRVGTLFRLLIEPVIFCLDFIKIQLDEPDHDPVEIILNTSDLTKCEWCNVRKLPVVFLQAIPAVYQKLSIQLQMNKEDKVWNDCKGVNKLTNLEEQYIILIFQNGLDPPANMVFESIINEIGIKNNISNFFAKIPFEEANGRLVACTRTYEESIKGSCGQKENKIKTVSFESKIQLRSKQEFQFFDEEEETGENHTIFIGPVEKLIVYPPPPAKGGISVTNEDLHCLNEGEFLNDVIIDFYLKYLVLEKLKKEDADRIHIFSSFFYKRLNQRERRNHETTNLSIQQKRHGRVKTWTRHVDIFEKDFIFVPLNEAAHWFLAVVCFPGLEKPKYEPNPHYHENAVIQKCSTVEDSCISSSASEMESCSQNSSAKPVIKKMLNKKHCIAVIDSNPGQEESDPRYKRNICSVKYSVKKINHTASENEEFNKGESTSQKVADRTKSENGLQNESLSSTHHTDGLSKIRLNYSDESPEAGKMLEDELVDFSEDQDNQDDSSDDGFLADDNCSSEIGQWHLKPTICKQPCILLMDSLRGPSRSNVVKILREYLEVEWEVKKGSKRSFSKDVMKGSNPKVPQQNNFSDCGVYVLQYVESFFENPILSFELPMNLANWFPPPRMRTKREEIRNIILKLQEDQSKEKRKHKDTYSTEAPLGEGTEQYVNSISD
Type: functional
Calls of active or inactive are those of the source.

Fill in IC50 for each of the 6 molecules listed.
1. Cc1ccccc1N1C(=O)Cc2ccccc2C1=O
2. O=C(NN=c1c(=O)c2ccccc2c1=O)c1ccccc1
3. Cc1ccccc1-c1nc2sc3c(c2c(=O)o1)CCC3
4. CCn1c(SCc2ccccc2Cl)nc2ccccc21
5. Fc1cccc(F)c1-c1nc(-c2ccc(Cl)cc2)no1
6. CSc1nc2ccc(NC(=O)c3cc4ccccc4o3)cc2s1

Resp:
["8.06 µM (active)", "3.47 µM (active)", "3.42 µM (active)", "17.5 µM (active)", "5.78 µM (active)", "13.5 µM (active)"]

* * *

target: Carboxy-terminal domain RNA polymerase II polypeptide A small phosphatase 1 (Homo sapiens, UniProt Q9GZU7); test: CTDSP1 inhibitors, concentration-response, biochemical, absorbance readout, ultra-high-throughput screen actives (AID 540297); format: functional
Sequence (Q9GZU7 whole entry, the tested form may be a part): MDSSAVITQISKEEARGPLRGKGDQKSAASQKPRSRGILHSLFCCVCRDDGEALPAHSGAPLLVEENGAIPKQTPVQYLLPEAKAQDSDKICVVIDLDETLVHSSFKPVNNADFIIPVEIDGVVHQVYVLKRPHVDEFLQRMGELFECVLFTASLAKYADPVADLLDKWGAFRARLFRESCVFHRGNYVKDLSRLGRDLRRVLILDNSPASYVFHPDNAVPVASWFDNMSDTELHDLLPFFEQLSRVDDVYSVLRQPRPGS
The source made the active and inactive calls.
QUANTITY MEASURED: IC50

C[N+]1(CCOc2ccc([N+](=O)[O-])cc2)CCOCC1.[I-]	4.86 µM (active)
O=C(O)CN1C(=O)/C(=C2\C(=O)N(Cc3ccccc3Cl)c3ccccc32)SC1=S	2.61 µM (active)
O=C(COC(=O)c1cccnc1Cl)NCc1ccco1	12.4 µM (active)
Sc1nnc(-c2cc(-c3ccco3)[nH]n2)n1-c1ccccc1Cl	5.55 µM (active)
O=C1Nn2c(nc3c(c2=O)CCC3)/C1=N/Nc1cccc(Cl)c1	6.15 µM (active)
COCCN1C(=O)c2oc3ccccc3c(=O)c2C1c1ccc(OC)c(OC)c1 (configuration not stated)	5.26 µM (active)

// next entry
Req: Give the value of IC50 reported for the following: Cc1cc(/C=C2\C(=O)NC(=O)N(c3ccc(Cl)cc3)C2=O)c(C)n1-c1cccc(C(=O)O)c1
Resp: 9.6 µM (active)
